These entries and their values trace back to ChEMBL document CHEMBL1125014.

- System: Streptococcus pneumoniae
- experimental_details: MIC value measured against streptococcus pneumoniae Park1
- Type: functional
Exercise: for every item that follows, state its recorded MIC.
Numbers only, in µg/mL.

Give me MIC for each of these molecules, listed below.
1. CCCCCCN[C@@H]1[C@H](C)[C@@H](O)[C@](C)(O)[C@@H](CC)OC(=O)[C@H](C)[C@@H](OC2CC(C)(OC)C(O)C(C)O2)[C@H](C)[C@@H](OC2OC(C)CC(N(C)C)C2O)[C@](C)(O)C[C@H]1C (stereo not given in full)
2. CCCCCCCN[C@@H]1[C@H](C)[C@@H](O)[C@](C)(O)[C@@H](CC)OC(=O)[C@H](C)[C@@H](OC2CC(C)(OC)C(O)C(C)O2)[C@H](C)[C@@H](OC2OC(C)CC(N(C)C)C2O)[C@](C)(O)C[C@H]1C (stereo not given in full)
3. CC[C@H]1OC(=O)[C@H](C)[C@@H](OC2CC(C)(OC)C(O)C(C)O2)[C@H](C)[C@@H](OC2OC(C)CC(N(C)C)C2O)[C@](C)(O)C[C@@H](C)[C@H](NCCCCN)[C@H](C)[C@@H](O)[C@]1(C)O (stereo not given in full)
4. CCN[C@@H]1[C@H](C)[C@@H](O)[C@](C)(O)[C@@H](CC)OC(=O)[C@H](C)[C@@H](OC2CC(C)(OC)C(O)C(C)O2)[C@H](C)[C@@H](OC2OC(C)CC(N(C)C)C2O)[C@](C)(O)C[C@H]1C (stereo not given in full)
5. CC[C@H]1OC(=O)[C@H](C)[C@@H](OC2CC(C)(OC)C(O)C(C)O2)[C@H](C)[C@@H](OC2OC(C)CC(N(C)C)C2O)[C@](C)(O)C[C@@H](C)[C@H](N)[C@H](C)[C@@H](O)[C@H]1C (stereo not given in full)

A.
[0.008, 0.015, 4, 0.03, 0.015]

----------
- System: Streptococcus pyogenes
- experimental_details: Effective dose against mice infected with streptococcus pyogenes after peroral administration (in vivo)
- Type: functional
- recorded_conditions: in Mus musculus, po
Exercise: for every item that follows, state its recorded ED50.
Give bare numbers, in mg/kg.

Example entries begin here.
molecule	ED50 [mg/kg]
CCN[C@@H]1[C@H](C)[C@@H](O)[C@](C)(O)[C@@H](CC)OC(=O)[C@H](C)[C@@H](OC2CC(C)(OC)C(O)C(C)O2)[C@H](C)[C@@H](OC2OC(C)CC(N(C)C)C2O)[C@](C)(O)C[C@H]1C (some centres not stated)	13
CC[C@H]1OC(=O)[C@H](C)[C@@H](OC2CC(C)(OC)C(O)C(C)O2)[C@H](C)[C@@H](OC2OC(C)CC(N(C)C)C2O)[C@](C)(O)C[C@@H](C)[C@H](N2CCCCC2)[C@H](C)[C@@H](O)[C@]1(C)O (some centres not stated)	24
CC[C@H]1OC(=O)[C@H](C)[C@@H](OC2CC(C)(OC)C(O)C(C)O2)[C@H](C)[C@@H](OC2OC(C)CC(N(C)C)C2O)[C@](C)(O)C[C@@H](C)[C@H]2[C@H](C)[C@@H](OCN2Cc2ccccc2)[C@]1(C)O (some centres not stated)	16

Give me ED50 for each of these molecules, listed below.
1. CCCCN[C@@H]1[C@H](C)[C@@H](O)[C@](C)(O)[C@@H](CC)OC(=O)[C@H](C)[C@@H](OC2CC(C)(OC)C(O)C(C)O2)[C@H](C)[C@@H](OC2OC(C)CC(N(C)C)C2O)[C@](C)(O)C[C@H]1C (some centres not stated)
2. CCC1N[C@@H]2[C@H](C)[C@@H](O1)[C@](C)(O)[C@@H](CC)OC(=O)[C@H](C)[C@@H](OC1CC(C)(OC)C(O)C(C)O1)[C@H](C)[C@@H](OC1OC(C)CC(N(C)C)C1O)[C@](C)(O)C[C@H]2C (some centres not stated)
3. CC[C@H]1OC(=O)[C@H](C)[C@@H](OC2CC(C)(OC)C(O)C(C)O2)[C@H](C)[C@@H](OC2OC(C)CC(N(C)C)C2O)[C@](C)(O)C[C@@H](C)[C@H](NCCC(C)C)[C@H](C)[C@@H](O)[C@]1(C)O (some centres not stated)

A.
1. 13
2. 35
3. 9

----------
- Test system: Enterococcus faecalis
- experimental_details: MIC value was measured against streptococcus faecalis.
- Format: functional
measurement_label: MIC

molecule	measurement_label	recorded_measurement
CCCCC/C=C/CCCN[C@@H]1[C@H](C)[C@@H](O)[C@](C)(O)[C@@H](CC)OC(=O)[C@H](C)[C@@H](OC2CC(C)(OC)C(O)C(C)O2)[C@H](C)[C@@H](OC2OC(C)CC(N(C)C)C2O)[C@](C)(O)C[C@H]1C (some centres not stated)	MIC	0.12 µg/mL

Shifting focus to the molecule that follows.
Q. Provide the documented MIC with Enterococcus faecalis as the system for CC[C@H]1OC(=O)[C@H](C)[C@@H](OC2CC(C)(OC)C(O)C(C)O2)[C@H](C)[C@@H](OC2OC(C)CC(N(C)C)C2O)[C@](C)(O)C[C@@H](C)[C@H](NC2CCCCC2)[C@H](C)[C@@H](O)[C@]1(C)O (some centres not stated)
A. 0.25 µg/mL

----------
Exercise: for every item that follows, state its recorded MIC.
- Test system: Streptococcus pneumoniae
- experimental_details: MIC value was measured against streptococcus pneumoniae park1
- Format: functional
One number for each entry, in ng/mL.

Example entries begin here.
compound	units_label	MIC
CC[C@H]1OC(=O)[C@H](C)[C@@H](OC2CC(C)(OC)C(O)C(C)O2)[C@H](C)[C@@H](OC2OC(C)CC(N(C)C)C2O)[C@](C)(O)C[C@@H](C)[C@H](NCCCc2ccccc2)[C@H](C)[C@@H](O)[C@]1(C)O (stereo partly drawn)	ng/mL	15
CCCN1CO[C@@H]2[C@@H](C)[C@@H]1[C@H](C)C[C@@](C)(O)[C@H](OC1OC(C)CC(N(C)C)C1O)[C@@H](C)[C@H](OC1CC(C)(OC)C(O)C(C)O1)[C@@H](C)C(=O)O[C@H](CC)[C@@]2(C)O (stereo partly drawn)	ng/mL	8

Q. Reported MIC, compound CC[C@H]1OC(=O)[C@H](C)[C@@H](OC2CC(C)(OC)C(O)C(C)O2)[C@H](C)[C@@H](OC2OC(C)CC(N(C)C)C2O)[C@](C)(O)C[C@@H](C)[C@H](NCC#Cc2ccccc2)[C@H](C)[C@@H](O)[C@]1(C)O (stereo partly drawn) : ____
A. 8

----------
- Tested on: Streptococcus pneumoniae
- experimental_details: MIC value measured against streptococcus pneumoniae Park1
- Assay type: functional
Exercise: for every item that follows, state its recorded MIC.
Numbers only, in mg/L.

Example entries begin here.
molecule	recorded_measurement
CC[C@H]1OC(=O)[C@H](C)[C@@H](OC2CC(C)(OC)C(O)C(C)O2)[C@H](C)[C@@H](OC2OC(C)CC(N(C)C)C2O)[C@](C)(O)C[C@@H](C)[C@H](N(C)C(C)C)[C@H](C)[C@@H](O)[C@]1(C)O (stereo partly drawn)	0.5
CC[C@H]1OC(=O)[C@H](C)[C@@H](O[C@H]2C[C@@](C)(OC)[C@@H](O)[C@H](C)O2)[C@H](C)[C@@H](O[C@@H]2O[C@H](C)C[C@H](N(C)C)[C@H]2O)[C@](C)(O)C[C@@H](C)C(=O)[C@H](C)[C@@H](O)[C@]1(C)O	0.008

Shifting focus to the molecule that follows.
Q. Reported MIC, molecule CC[C@H]1OC(=O)[C@H](C)[C@@H](OC2CC(C)(OC)C(O)C(C)O2)[C@H](C)[C@@H](OC2OC(C)CC(N(C)C)C2O)[C@](C)(O)C[C@@H](C)[C@H](NCCOC)[C@H](C)[C@@H](O)[C@]1(C)O (stereo partly drawn) : ____
A. 0.015

----------
Exercise: for every item that follows, state its recorded ED50.
- Tested on: Streptococcus pyogenes
- experimental_details: Effective dose against mice infected with streptococcus pyogenes after peroral administration (in vivo)
- Type: functional
- recorded_conditions: in Mus musculus, po
Numbers only, in mg/kg.

Example entries begin here.
compound	tested_on	ED50, mg/kg
CC[C@H]1OC(=O)[C@H](C)[C@@H](OC2CC(C)(OC)C(O)C(C)O2)[C@H](C)[C@@H](OC2OC(C)CC(N(C)C)C2O)[C@](C)(O)C[C@@H](C)[C@H](NCC#Cc2ccccc2)[C@H](C)[C@@H](O)[C@]1(C)O (some centres undefined)	Streptococcus pyogenes	27
CCC(CC)CN[C@@H]1[C@H](C)[C@@H](O)[C@](C)(O)[C@@H](CC)OC(=O)[C@H](C)[C@@H](OC2CC(C)(OC)C(O)C(C)O2)[C@H](C)[C@@H](OC2OC(C)CC(N(C)C)C2O)[C@](C)(O)C[C@H]1C (some centres undefined)	Streptococcus pyogenes	10

Shifting focus to the compound that follows.
Q. Reported ED50, compound CC[C@H]1OC(=O)[C@H](C)[C@@H](OC2CC(C)(OC)C(O)C(C)O2)[C@H](C)[C@@H](OC2OC(C)CC(N(C)C)C2O)[C@](C)(O)C[C@@H](C)[C@H](NC(C)C)[C@H](C)[C@@H](O)[C@]1(C)O (some centres undefined) : ____
A. 13
